Could you please report measured IC50 for the items listed next?
target-or-test-system: CDK9/cyclin T1 (Homo sapiens)
Sequence (O60563 whole entry): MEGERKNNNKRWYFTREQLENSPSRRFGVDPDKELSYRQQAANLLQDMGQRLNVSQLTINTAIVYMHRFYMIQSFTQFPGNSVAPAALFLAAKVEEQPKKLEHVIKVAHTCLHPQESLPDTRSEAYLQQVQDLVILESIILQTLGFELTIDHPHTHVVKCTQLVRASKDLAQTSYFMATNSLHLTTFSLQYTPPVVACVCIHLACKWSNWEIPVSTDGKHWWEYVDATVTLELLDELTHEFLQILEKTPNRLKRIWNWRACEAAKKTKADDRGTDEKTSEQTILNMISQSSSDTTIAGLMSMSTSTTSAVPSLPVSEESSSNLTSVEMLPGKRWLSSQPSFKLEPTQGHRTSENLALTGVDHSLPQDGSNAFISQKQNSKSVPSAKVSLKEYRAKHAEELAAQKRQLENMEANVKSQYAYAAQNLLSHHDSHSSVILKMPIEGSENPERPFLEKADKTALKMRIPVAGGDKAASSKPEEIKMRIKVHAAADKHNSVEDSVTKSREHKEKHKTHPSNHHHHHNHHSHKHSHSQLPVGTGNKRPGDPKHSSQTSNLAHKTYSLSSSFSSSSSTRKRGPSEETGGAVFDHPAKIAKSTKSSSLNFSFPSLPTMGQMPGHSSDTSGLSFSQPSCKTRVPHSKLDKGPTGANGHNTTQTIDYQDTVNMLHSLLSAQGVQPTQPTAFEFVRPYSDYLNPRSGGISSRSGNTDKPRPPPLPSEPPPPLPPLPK
Sequence (P50750 whole entry): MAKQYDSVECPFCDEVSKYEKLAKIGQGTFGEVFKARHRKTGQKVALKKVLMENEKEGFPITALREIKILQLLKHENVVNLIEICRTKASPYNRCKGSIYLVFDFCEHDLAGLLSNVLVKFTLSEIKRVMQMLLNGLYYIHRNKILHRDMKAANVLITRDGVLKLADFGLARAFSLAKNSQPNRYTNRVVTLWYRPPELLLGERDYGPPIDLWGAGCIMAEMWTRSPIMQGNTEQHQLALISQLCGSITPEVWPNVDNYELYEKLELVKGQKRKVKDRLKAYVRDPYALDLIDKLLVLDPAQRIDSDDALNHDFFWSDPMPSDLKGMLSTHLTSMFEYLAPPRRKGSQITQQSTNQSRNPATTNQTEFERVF
assay-name: Inhibition of human recombinant CDK9/cyclin T expressed in insect cell using YSPTSPSYSPTSPSYSPTSPSKKKK as substrate and [gamma33P]ATP after 30 mins by scintillation counting

# annotated cases, reported IC50 shown
INSERT INTO results (structure_smiles_string, test_result) VALUES
  ('COc1ccc2c(c1)[nH]c1c(C)nccc12', '0.72 µM'),
  ('CN1C(=O)/C(=C/c2ccc3c(c2)OCO3)N=C1N', '> 10 µM');

Now for the compound whose IC50 we want.
Query: Fill in: IC50 on CDK9/cyclin T1 (Homo sapiens), entry O=C1NC(Nc2ccccc2)=N/C1=C\c1ccc2c(c1)OCO2
Response: 18 µM

---

target-or-test-system: Dual specificity protein kinase CLK4 (Homo sapiens, UniProt Q9HAZ1)
Sequence (Q9HAZ1 whole entry): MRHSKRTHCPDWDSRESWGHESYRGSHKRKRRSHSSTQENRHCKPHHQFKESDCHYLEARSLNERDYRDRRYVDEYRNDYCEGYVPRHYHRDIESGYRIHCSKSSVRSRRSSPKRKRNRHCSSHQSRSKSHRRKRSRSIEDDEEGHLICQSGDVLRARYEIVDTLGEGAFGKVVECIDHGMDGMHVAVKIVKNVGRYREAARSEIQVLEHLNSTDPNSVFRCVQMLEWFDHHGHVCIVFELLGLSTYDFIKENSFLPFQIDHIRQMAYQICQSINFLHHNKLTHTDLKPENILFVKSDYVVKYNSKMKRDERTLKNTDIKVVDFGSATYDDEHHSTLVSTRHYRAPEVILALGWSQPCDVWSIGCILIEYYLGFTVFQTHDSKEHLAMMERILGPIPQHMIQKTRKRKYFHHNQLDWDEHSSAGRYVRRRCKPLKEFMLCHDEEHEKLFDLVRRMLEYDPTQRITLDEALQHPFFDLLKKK
readout-name: pKd
One number for each entry, as −log10 of the molar value.

Query: Note pKd for the compound shown: O=C1NC(Nc2ccccc2)=N/C1=C\c1ccc2c(c1)OCO2
Response: 7.15

---

Could you please report measured IC50 for the items listed next?
target-or-test-system: Dual specificity protein kinase CLK2 (Mus musculus, UniProt O35491)
Sequence (O35491 whole entry): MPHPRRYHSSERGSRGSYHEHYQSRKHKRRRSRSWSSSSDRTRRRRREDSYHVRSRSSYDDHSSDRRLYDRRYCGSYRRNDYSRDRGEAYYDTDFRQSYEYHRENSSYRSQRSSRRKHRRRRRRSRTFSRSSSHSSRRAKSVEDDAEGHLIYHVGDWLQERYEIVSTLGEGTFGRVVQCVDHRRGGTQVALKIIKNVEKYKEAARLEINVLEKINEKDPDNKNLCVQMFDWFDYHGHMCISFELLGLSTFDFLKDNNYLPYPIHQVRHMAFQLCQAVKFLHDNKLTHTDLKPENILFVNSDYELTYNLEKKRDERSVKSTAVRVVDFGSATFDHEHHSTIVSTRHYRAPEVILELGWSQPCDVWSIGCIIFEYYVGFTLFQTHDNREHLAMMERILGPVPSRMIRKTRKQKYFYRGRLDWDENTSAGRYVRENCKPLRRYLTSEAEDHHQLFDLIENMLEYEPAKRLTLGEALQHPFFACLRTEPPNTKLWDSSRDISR
assay-name: Inhibition of mouse recombinant GST-tagged CLK2 expressed in Escherichia coli using GRSRSRSRSRSR as substrate and [gamma33P]ATP after 30 mins by scintillation counting

# annotated cases, reported IC50 shown
INSERT INTO measurements (structure_smiles_string, readout_name, test_result) VALUES
  ('O=C1NC(Nc2ccccc2)=N/C1=C\c1ccc2c(c1)OCO2', 'IC50', '720 nM'),
  ('CN1C(=O)/C(=C/c2ccc3c(c2)OCO3)N=C1N', 'IC50', '2100 nM');

Query: Fill in: IC50 on Dual specificity protein kinase CLK2 (Mus musculus, UniProt O35491), entry COc1ccc2c(c1)[nH]c1c(C)nccc12
Response: 280 nM

---

target-or-test-system: Glycogen synthase kinase-3 alpha (Homo sapiens)
Sequence (P49840 whole entry): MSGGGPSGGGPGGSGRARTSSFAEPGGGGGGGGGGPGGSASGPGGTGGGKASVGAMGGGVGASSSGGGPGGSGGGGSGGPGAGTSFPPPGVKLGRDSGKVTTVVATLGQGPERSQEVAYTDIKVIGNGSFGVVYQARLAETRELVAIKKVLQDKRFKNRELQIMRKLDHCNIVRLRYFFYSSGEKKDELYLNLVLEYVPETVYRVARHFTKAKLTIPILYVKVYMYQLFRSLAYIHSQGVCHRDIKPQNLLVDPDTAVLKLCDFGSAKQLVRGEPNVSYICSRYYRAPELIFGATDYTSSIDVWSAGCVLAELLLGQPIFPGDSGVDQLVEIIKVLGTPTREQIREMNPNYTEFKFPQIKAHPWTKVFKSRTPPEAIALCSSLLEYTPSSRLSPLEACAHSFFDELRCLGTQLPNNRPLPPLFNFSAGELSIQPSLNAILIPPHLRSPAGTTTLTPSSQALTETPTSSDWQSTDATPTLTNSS
assay-name: Inhibition of human recombinant GSK3alpha expressed in insect cells using YRRAAVPPSPSLSRHSSPHQ-phosphoS-EDEEE as substrate and [gamma33P]ATP after 30 mins by scintillation counting
Could you please report measured IC50 for the items listed next?
Numbers only, in µM.

Batch request: IC50 per item, same order as input.
1. CN1C(=O)/C(=C/c2ccc3c(c2)OCO3)N=C1N
2. O=C1NC(Nc2ccccc2)=N/C1=C\c1ccc2c(c1)OCO2

Response:
1: 7.7; 2: 0.21

---

Could you please report measured IC50 for the items listed next?
target-or-test-system: Cyclin-dependent kinase 2/cyclin A (Homo sapiens, UniProt P24941)
assay-name: Inhibition of CDK2/cyclin A using [gamma33P]ATP after 30 mins by scintillation counting

INSERT INTO assay_data (compound, readout_name, test_result) VALUES
  ('COc1ccc2c(c1)[nH]c1c(C)nccc12 [HARMINE]', 'IC50', '> 30 µM'),
  ('CN1C(=O)/C(=C/c2ccc3c(c2)OCO3)N=C1N [LEUCETTAMINE B]', 'IC50', '> 10 µM');

Query: Note IC50 for the compound shown: O=C1NC(Nc2ccccc2)=N/C1=C\c1ccc2c(c1)OCO2
Response: > 30 µM

---

target-or-test-system: Serine/threonine-protein kinase pim-1 (Homo sapiens, UniProt P11309)
Sequence (P11309 whole entry): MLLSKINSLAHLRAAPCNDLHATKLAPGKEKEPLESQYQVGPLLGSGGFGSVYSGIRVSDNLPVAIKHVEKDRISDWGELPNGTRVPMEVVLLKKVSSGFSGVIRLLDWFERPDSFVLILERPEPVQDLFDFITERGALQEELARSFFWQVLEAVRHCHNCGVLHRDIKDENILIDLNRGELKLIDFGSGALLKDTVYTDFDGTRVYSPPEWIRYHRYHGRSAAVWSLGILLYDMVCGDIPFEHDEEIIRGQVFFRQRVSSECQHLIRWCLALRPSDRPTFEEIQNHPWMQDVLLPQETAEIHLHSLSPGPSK
assay-name: Inhibition of human recombinant PIM1 expressed in Escherichia coli using histone H1 as substrate and [gamma33P]ATP after 30 mins by scintillation counting
readout-name: IC50

INSERT INTO measurements (structure_smiles_string, readout_name, test_result) VALUES
  ('COc1ccc2c(c1)[nH]c1c(C)nccc12', 'IC50', '> 10 µM');

Now for the molecule whose IC50 we want.
Query: Fill in: IC50 on Serine/threonine-protein kinase pim-1 (Homo sapiens, UniProt P11309), entry CN1C(=O)/C(=C/c2ccc3c(c2)OCO3)N=C1N
Response: > 10 µM
